Values from PubChem BioAssay AID1918942

System: 743489-274-T-PDC complex spheroid viability
protocol.summary: Anticancer human tumor 743489-274-T-PDC patient-derived renal cell carcinoma cell line growth inhibition
test.conditions: second compound 3.16 µM; first compound 0.00949 µM; stronger effect = lower value
measurement.label: viability, T/C (%)
Give a bare numeral; the unit % is implied.

Q. GET /values?readout=viability, T/C&item= Nc1ncn(C2CC(O)C(CO)S2)c(=O)n1 (configuration not stated) + NC1CC1c1ccc(-c2cccc(O)c2)cc1
A. 83

Q. Param item: CCc1c2c(nc3ccc(O)cc13)-c1cc3c(c(=O)n1C2)COC(=O)[C@]3(O)CC + NC1CCC(NC2CC2c2ccccc2)CC1
A. 62.1

Q. Please give the result for Nc1ccccc1NC(=O)c1ccc(CNC(=O)OCc2cccnc2)cc1 + NC1CCC(NC2CC2c2ccccc2)CC1 too.
A. 113

Q. Next entry: CCN(c1cc(-c2ccc(CN3CCOCC3)cc2)cc(C(=O)NCc2c(C)cc(C)[nH]c2=O)c1C)C1CCOCC1 + NC1CC1c1ccc(-c2cccc(O)c2)cc1
A. 96.6

Q. Request: CCN(c1cc(-c2ccc(CN3CCOCC3)cc2)cc(C(=O)NCc2c(C)cc(C)[nH]c2=O)c1C)C1CCOCC1 + NC1CCC(NC2CC2c2ccccc2)CC1
A. 107

Q. Same thing, different molecule: Nc1ccn(C2OC(CO)C(O)C2(F)F)c(=O)n1 (configuration not stated) + NC1CC1c1ccc(-c2cccc(O)c2)cc1
A. 97.8

Q. What about this molecule? CCc1c2c(nc3ccc(O)cc13)-c1cc3c(c(=O)n1C2)COC(=O)[C@]3(O)CC + NC1CC1c1ccc(-c2cccc(O)c2)cc1
A. 42.3

* * *

System: 743489-274-T-PDC complex spheroid viability
protocol.summary: Anticancer human tumor 743489-274-T-PDC cell line growth inhibition;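 also: spheroids exposed to compounds for 7 days before readout; 100% = DMSO vehicle control wells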
test.conditions: second compound 0.316 µM; first compound 0.316 µM; stronger effect = lower value
Would you mind telling me the reported viability, T/C of each entry?
All answers are understood in %, so give the number only.

Q. For the compound O=C(C=Cn1cnc(-c2cc(C(F)(F)F)cc(C(F)(F)F)c2)n1)NNc1cnccn1 + NC1CCC(NC2CC2c2ccccc2)CC1 , what viability, T/C is on record?
A. 97.8

Q. Would you mind doing CC1COCCN1c1cc(-c2ccnn2C)c2ccnc(-c3ccn[nH]3)c2n1 (stereo not given) + NC1CCC(NC2CC2c2ccccc2)CC1 as well?
A. 83

Q. Proceed to CC1COCCN1c1cc(-c2ccnn2C)c2ccnc(-c3ccn[nH]3)c2n1 (stereo not given) + NC1CC1c1ccc(-c2cccc(O)c2)cc1
A. 64.5

Q. Thanks! And O=C(C=Cn1cnc(-c2cc(C(F)(F)F)cc(C(F)(F)F)c2)n1)NNc1cnccn1 + NC1CC1c1ccc(-c2cccc(O)c2)cc1 ?
A. 76.4

Q. Entry to check: Nc1ncn(C2CC(O)C(CO)O2)c(=O)n1 (stereo not given) + NC1CC1c1ccc(-c2cccc(O)c2)cc1
A. 102

Q. Please do the same for COc1ccc([C@@H](O)c2cc(-c3ncnc4cc(N5CCOCC5)ccc34)c(F)cc2Cl)nn1 + NC1CC1c1ccc(-c2cccc(O)c2)cc1 as well.
A. 68.8

Q. Would you kindly repeat that for CC(C)c1c(-c2ccccc2)nc2c(C#N)c[nH]n2c1=O + NC1CC1c1ccc(-c2cccc(O)c2)cc1 ?
A. 134

Q. What about COc1cc(Nc2ncc3c(n2)-c2ccc(Cl)cc2C(c2c(F)cccc2OC)=NC3)ccc1C(=O)O + NC1CCC(NC2CC2c2ccccc2)CC1 ?
A. 89.7

Q. Also check CC1COCCN1c1cc(C2(S(C)(=N)=O)CC2)nc(-c2ccnc3[nH]ccc23)n1 (stereo not given) + NC1CC1c1ccc(-c2cccc(O)c2)cc1
A. 99.6

Q. Thanks! And CC1(C)CCC(CN2CCN(c3ccc(C(=O)NS(=O)(=O)c4ccc(NCC5CCOCC5)c([N+](=O)[O-])c4)c(Oc4cnc5[nH]ccc5c4)c3)CC2)=C(c2ccc(Cl)cc2)C1 + NC1CC1c1ccc(-c2cccc(O)c2)cc1 ?
A. 112

Q. Moving on to Nc1ncn(C2CC(O)C(CO)O2)c(=O)n1 (stereo not given) + NC1CCC(NC2CC2c2ccccc2)CC1
A. 98

Q. Please do the same for CC(C)c1c(-c2ccccc2)nc2c(C#N)c[nH]n2c1=O + NC1CCC(NC2CC2c2ccccc2)CC1 as well.
A. 126

Q. Item: O=C(c1cc(Cc2n[nH]c(=O)c3ccccc23)ccc1F)N1CCN(C(=O)C2CC2)CC1 + NC1CCC(NC2CC2c2ccccc2)CC1
A. 120

Q. Thanks! And COc1cc(Nc2ncc3c(n2)-c2ccc(Cl)cc2C(c2c(F)cccc2OC)=NC3)ccc1C(=O)O + NC1CC1c1ccc(-c2cccc(O)c2)cc1 ?
A. 81.2

Q. Try the compound O=C(c1cc(Cc2n[nH]c(=O)c3ccccc23)ccc1F)N1CCN(C(=O)C2CC2)CC1 + NC1CC1c1ccc(-c2cccc(O)c2)cc1
A. 132
